Give measured growth for each item. Keep answers brief.
# Test system: SNB-75 CNS
# procedure details: NCI-60 one-dose screen, 48 h (100 = growth as untreated, 0 = no growth, -100 = all killed)
# test conditions: 10 µM unless noted
The panel holds about 83,000 compounds, 20% with a hit somewhere; the sample as a whole holds those more often. Activity calls are given as the source filed them. How the source made its calls: active means growth percent below 10; inactive means the rest.

N#Cc1nc(-c2ccccc2)oc1N1CCC(C2(C(F)(F)F)N=N2)CC1: 98.7% (inactive)
COc1cc(-c2nc(-c3ccccc3)[nH]c2-c2ccnc(NCCCNS(=O)(=O)c3ccc(C)cc3)n2)ccc1F: 105% (inactive)
Cc1ccc2c(n1)C(=O)C(Cl)=C(Nc1cc(C(F)(F)F)cc(C(F)(F)F)c1)C2=O: 98.3% (inactive)

Then there is this molecule:
**Query** Fill in the blank: the reported growth of O=C(CSc1cc[n+](CCCCO)c2ccccc12)n1ccc2ccccc21 is ____.
**Result** 96.1% (inactive)

----------
# Tested on: SF-268 CNS
# procedure details: NCI-60 one-dose screen, 48 h (100 = growth as untreated, 0 = no growth, -100 = all killed)
# test conditions: 10 µM unless noted
The panel holds about 83,000 compounds, 20% with a hit somewhere; the sample as a whole holds those more often. Activity calls are given as the source filed them. The calls were made as follows: active = growth percent below 10; inactive = the rest.
endpoint label: growth

Example entries begin here.
Cn1ncc2c(C(=O)c3ccc(F)cc3)nc(C(C)(C)C)nc21: 97.3% (inactive)
O=C(Nc1ccc(Cl)c(C(F)(F)F)c1)Nc1ccc2c(ccn2C(=O)c2cccc(F)c2)c1: 55.4% (inactive)
C#Cc1nc(/C=C/CCCCCCC(=O)NO)cs1: 83.2% (inactive)
C(=N\Nc1nc(N/N=C/c2ccc3c(c2)OCO3)nc(N2CCCCC2)n1)/c1ccc2c(c1)OCO2: 100% (inactive)
COc1ccc(-c2cc(-c3ccc(N4CCOCC4)cc3)n3c(n2)nc2ccccc23)cc1OC: 90.7% (inactive)
CN1CCN(Cc2ccc(/C=N/Nc3ccnc4cc(Cl)ccc34)cc2)CC1: 99.8% (inactive)

# return growth for each item in the list
1. O=S1SC(c2ccccc2)=NN1c1cc(F)cc(F)c1 (configuration not stated)
2. O=C(/C=C/Nc1ccc(S(=O)(=O)Nc2ncccn2)cc1)c1ccc(N=Cc2c(O)[nH]c3ccccc23)cc1

**Result**
1: 54.3% (inactive); 2: 112% (inactive)

Please supply growth for each of the following items, keeping them in order.
1. Cc1ccc2c(n1)C(=O)C(Cl)=C(Nc1ccccc1C(=O)OC(C)(C)C)C2=O
2. CCCCCCOC(=O)c1cc(-c2ccc(F)cc2)nc2ccccc12

**Result**
["79.6% (inactive)", "96.1% (inactive)"]

Hi team, please reply with growth for each item in this list.
1. Cc1ccc2c(n1)C(=O)C(Cl)=C(Nc1ccc(C(=O)OC(C)(C)C)cc1)C2=O
2. COc1ccc(/C=N/N=C(/c2ccccc2)c2ccc3nc(-c4ccc(Cl)cc4)[nH]c3c2)cc1
3. Cn1c2nc3ccccc3c-2cc2ccccc21
4. CCCc1cc2cc(-n3nc(CC)c4c3CC(C)(C)CC4=O)cc(NC3CCC(O)CC3)c2c(=O)[nH]1 (configuration not stated)

**Result**
87.6% [9.25 µM] (inactive)
88.7% (inactive)
57.3% (inactive)
49.3% (inactive)

Provide the reported growth of each entry below, same order.
1. Brc1ccc(-c2cc(-c3ccc4c(c3)OC=CO4)n[nH]2)s1
2. O=C(Nc1cccc(Cl)c1)Nc1nc2cc([N+](=O)[O-])ccc2o1
3. CC(C)(C)OC(=O)NCc1ccc(CNc2c([N+](=O)[O-])cnc3ccccc23)cc1
4. O=C(CSc1nc2ccccc2c(=O)n1-c1ccccc1)Nc1ccc(S(=O)(=O)Nc2nccs2)cc1
5. O=C1c2ccccc2C23C(=C(c4cncnc4)c4ccccc42)CCCN13 (configuration not stated)
6. CC(C)(C)Nc1nc2c(OCCc3ccccc3)cccn2c1-c1ccc([N+](=O)[O-])cc1
7. O=C1Nc2ccc(F)cc2/C1=C\C(=O)c1ccc(NS(=O)(=O)c2ccccc2)cc1

**Result**
1: 89% (inactive); 2: 37.3% (inactive); 3: 77% (inactive); 4: 44.5% (inactive); 5: 91.6% (inactive); 6: 71.2% (inactive); 7: 97.9% (inactive)

----------
# Tested on: U251 CNS
# procedure details: NCI-60 one-dose screen, 48 h
# test conditions: 10 µM unless noted
The panel holds about 83,000 compounds, 20% with a hit somewhere; the sample as a whole holds those more often. Activity calls are given as the source filed them. The calls were made as follows: active = growth percent below 10; inactive = the rest.
The reply should be one of these categories: active, inactive

Observe how each entry below is paired with its result.
Brc1cc(-c2cc(-c3ccc4c(c3)OC=CO4)[nH]n2)cs1: inactive
COc1ccc(C(C)=C(c2ccc(OCCN(C)C)cc2)c2ccc(OCCN(C)C)cc2)cc1: active
CCCCCCNC(=O)Oc1ccc(/C(=C(/C)c2ccc(OC)cc2)c2ccc(OCCN3CCCCCC3)cc2)cc1: inactive
Cc1ccc(NC(=O)/C=C/c2ccc(OCCCOc3ccc4c(C)cc(=O)oc4c3)cc2)cc1: inactive
O=C1[C@@H]2Cc3c([nH]c4ccccc34)[C@H](c3ccc(Br)cc3)N2C(=O)CN1C1CCN(Cc2c(Cl)cccc2Cl)CC1: inactive

**Query** What call does the record list for Cn1cc(-c2cc3ncnc(Nc4ccc(CC(=O)Nc5nc(C(C)(C)C)cs5)cc4)c3s2)cn1 ?
**Result** inactive

**Query** How did this test come out for O=C(CSc1nnc(-c2ccc(Cl)cc2)n1-c1ccccc1)Nc1ccc(Cl)cc1 ?
**Result** inactive

----------
# Test system: HOP-62 NSCLC
# procedure details: NCI-60 one-dose screen, 48 h
# test conditions: 10 µM unless noted
The panel holds about 83,000 compounds, 20% with a hit somewhere; the sample as a whole holds those more often. Activity calls are given as the source filed them. Rule for the calls: active = growth percent below 10; inactive = the rest.
Valid outcomes are listed here; reply with one: yes (1) (active), no (0) (inactive)

O=C1Nc2ccccc2/C1=N\c1nnc(-c2ccccc2)o1: no (0)
O=C(N/N=C/c1cc2ccccc2nc1Cl)c1cc(-c2nc3ccccc3[nH]2)nc2ccccc12: no (0)
Cc1ccc(S(=O)(=O)NCCCNc2nccc(-c3[nH]c(-c4ccccc4)nc3-c3ccc(F)c(O)c3)n2)cc1: no (0)
C[C@H]1OCC2(CCN(c3cnc(C(=O)Nc4cc(F)cc5cccnc45)cn3)CC2)[C@H]1N: no (0)
C#CCN(C)CCCOc1ccc(NC(=O)CCCCCCC(=O)NO)cc1Cl: no (0)

**Query** Dear all, I need the recorded test outcome for CC(=C(c1ccc(OCCN2CCCC2)cc1)c1ccc(OCCN2CCCC2)cc1)c1ccc(Cl)cc1 , thank you.
**Result** yes (1)

**Query** Per the assay record, what outcome was assigned to Brc1cccc(-c2cc(-c3ccc4c(c3)OC=CO4)[nH]n2)c1 ?
**Result** no (0)

**Query** // return assay outcome for C/C(=C(/C)C1CC1CCNC1CCC(NC(=O)OC(C)(C)C)CC1)c1ccccc1 (stereo not drawn)
**Result** no (0)

**Query** Short answer needed: outcome of this test for CCOP(=O)(OCC)OC[C@]12CC[C@@H](C)[C@H](C)C1C1=CC[C@@H]3[C@@]4(C)CCCNC(C)(C)[C@@H]4CC[C@@]3(C)[C@]1(C)CC2 (stereo partly drawn) ?
**Result** no (0)

----------
# Test system: T-47D breast
# procedure details: NCI-60 one-dose screen, 48 h (100 = growth as untreated, 0 = no growth, -100 = all killed)
# test conditions: 10 µM unless noted
The panel holds about 83,000 compounds, 20% with a hit somewhere; the sample as a whole holds those more often. The source made the active and inactive calls. Rule for the calls: active = growth percent below 10; inactive = the rest.
endpoint label: growth

# example entries with known answers
O=C(CSc1nc2ccccc2c(=O)n1-c1ccccc1)Nc1ccc(S(=O)(=O)Nc2nccs2)cc1: 69.3% (inactive)
Cc1ccc(N2CCN(C3=C(Cl)C(=O)c4ncccc4C3=O)CC2)cc1: -56.1% (active)
CC1=Cc2ccccc2OC12C=Cc1ccccc1O2 (stereo not drawn): 81.8% (inactive)
Fc1ccc2nc(-c3cnn4cccnc34)sc2c1: 44.2% (inactive)
CN(C)S(=O)(=O)c1ccc(-c2nc(C(Cl)Cl)nc3cc(-c4ccccc4)nn23)cc1: 89.5% (inactive)
C#CCOc1ccccc1/C=N/Nc1nc(-c2ccc(Cl)cc2)cs1: 71.9% (inactive)
Cc1csc(/N=C(N)/N=C(\N)c2cccc(C#N)c2)n1: 79.7% (inactive)

**Query** Consider the compound O=C(N/N=C\c1ccc([N+](=O)[O-])cc1)c1ccc2nc(-c3ccc(Br)cc3)[nH]c2c1 and give its measured growth.
**Result** 9.87% (active)

----------
# System: OVCAR-4 ovarian
# procedure details: NCI-60 one-dose screen, 48 h
# test conditions: 10 µM unless noted
Compounds without any hit were thinned out: in the full panel of roughly 83,000, 20% have a hit. Activity calls are given as the source filed them. The calls were made as follows: active = growth percent below 10; inactive = the rest.
Pick one and only one: label 1 for active, label 0 for inactive

Some solved entries appear below for comparison.
NCCNC(=O)c1cccc(COc2ccccc2NC(=O)c2cc(Cl)c(Cl)[nH]2)c1: label 0
Nc1cc(C(=O)N/N=C\c2ccc(OC(F)F)c(OC3CCCC3)c2)nn1CC(O)c1ccccc1 (stereo not drawn): label 0
N#Cc1c(-c2cccs2)cc(-c2cnccn2)nc1SCC(=O)N/N=C/c1cccs1: label 0

**Query** How did this test come out for C#CCOc1ccc(-c2csc(NC(=O)C=C)n2)cc1NS(=O)(=O)c1cccc2c(N(C)C)cccc12 ?
**Result** label 0

**Query** Dear all, I need the recorded test outcome for Cc1ccc(C(=O)Nc2ccc(CNCCN3CCNCC3)c(C(F)(F)F)c2)cc1C#Cc1cnc2cccnn12 , thank you.
**Result** label 1

**Query** Tell me the recorded outcome of this test for CCCCCCNC(=O)Oc1ccc(/C(=C(/C)c2ccc(OC)cc2)c2ccc(OCCN3CCCCCC3)cc2)cc1 .
**Result** label 0
